B1: CDS2 (parent)
chain: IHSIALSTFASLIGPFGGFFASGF

- Variants of: B1
- assay_details: protein stability index of a GFP-peptide fusion (GPS, HEK-293T) (PSI 1-6); higher = more stable;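 further: lentivirally expressed fusions sorted by FACS into six bins by GFP to DsRed ratio, PSI derived from sequencing read proportions per bin multiplied by bin number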
- condition_set: c terminus: a fixed tail appended
// false (0) strictly below 3 in protein stability index; true (1) otherwise

construct_sequence: AHSIALSTFASLIGPFGGFFASGF [I1A]
assigned_label: true (1)

construct_sequence: IHSIALYTFASLIGPFGGFFASGF [S7Y]
assigned_label: false (0)

construct_sequence: IHSIALSTFASLTGPFGGFFASGF [I13T]
assigned_label: false (0)

construct_sequence: IHSIALSTFASLIGPFRGFFASGF [G17R]
assigned_label: false (0)

construct_sequence: IHSIALSTFASLIGWFGGFFASGF [P15W]
assigned_label: false (0)

construct_sequence: IHSIALSTFASLIGPFGGAFASGF [F19A]
assigned_label: false (0)

construct_sequence: IHSIALSTFASLIGPFGGFFASHF [G23H]
assigned_label: false (0)

construct_sequence: IHSIALSTFASLNGPFGGFFASGF [I13N]
assigned_label: false (0)

construct_sequence: IHSIAISTFASLIGPFGGFFASGF [L6I]
assigned_label: true (1)

construct_sequence: IHSIALSTFASLIGHFGGFFASGF [P15H]
assigned_label: false (0)

Reference source for all entries: the supplement of paper PMC10567573
